- Assay type: physicochemical
- conditionInfo: stored at room temperature (21-25° C.), day 570
Record form. Attribute: Stability in Powder Concentrate (content by LCMSMS). Fill in for each entry.
Give bare numbers, in mg/g powder.

molecule	value
CCCCCc1cc(O)c(C/C=C(\C)CCC=C(C)C)c(O)c1	1.06

State the recorded Stability in Powder Concentrate (content by LCMSMS) for every item in the following list.
1. Cc1c(C)c2c(c(C)c1OC(=O)CCC(=O)O)CC[C@@](C)(CCC[C@H](C)CCC[C@H](C)CCCC(C)C)O2 [α-Tocopheryl succinate]
2. CCCc1cc(O)c2c(c1)OC(C)(C)[C@@H]1CCC(C)=C[C@@H]21 [THCV, delta-9-tetrahydrocannabivarin]
3. Cc1c(C)c2c(c(C)c1O)CC[C@@](C)(CCC[C@H](C)CCC[C@H](C)CCCC(C)C)O2
4. CCCCCc1cc(O)c2c(c1)OC(C)(C)[C@@H]1CCC(C)=C[C@@H]21 [D9 THC, delta-9-tetrahydrocannabinol, reference compound]
5. CCCCCc1cc2c(c(O)c1C(=O)O)[C@@H]1C=C(C)CC[C@H]1C(C)(C)O2 [D9 THCA, delta-9-tetrahydrocannabinolic acid]
6. CC(=O)Oc1c(C)c(C)c2c(c1C)CCC(C)(CCC[C@H](C)CCC[C@H](C)CCCC(C)C)O2 (stereo partly drawn) [α-Tocopheryl acetate]

result:
[1.77, 0.686, 4.72, 2.64, 0.148, 2.13]

----------
Hi there, I'd appreciate the recorded Stability in Powder Concentrate (content by LCMSMS) for every entry that follows.
- Format: physicochemical
- conditionInfo: stored at room temperature (21-25° C.), day 480
Give bare numbers, in mg/g powder.

compound	unitText	value
C=C(C)[C@@H]1CCC(C)=C[C@H]1c1c(O)cc(CCC)cc1O	mg/g powder	0.051
C=C(C)[C@@H]1CCC(C)=C[C@H]1c1c(O)cc(CCCCC)c(C(=O)O)c1O	mg/g powder	0.418
CC(=O)Oc1c(C)c(C)c2c(c1C)CCC(C)(CCC[C@H](C)CCC[C@H](C)CCCC(C)C)O2 (stereo partly drawn) [α-Tocopheryl acetate]	mg/g powder	2.10
CCCCCc1cc(O)c(C/C=C(\C)CCC=C(C)C)c(O)c1	mg/g powder	1.12
CCCCCc1cc(O)c2c(c1)OC(C)(C)c1ccc(C)cc1-2	mg/g powder	0.485

Consider now this further compound.
query: Recorded Stability in Powder Concentrate (content by LCMSMS) of CCCCCc1cc2c(c(O)c1C(=O)O)[C@@H]1C=C(C)CC[C@H]1C(C)(C)O2 [D9 THCA, delta-9-tetrahydrocannabinolic acid] , please.
result: 0.149

----------
- testMethodNotes: Stability of cannabinoid and Vitamin E components of Beverage 1 (AB White) stored at 8° C. and 21-25° C., LCMSMS over 570 days
- Type: physicochemical
- conditionInfo: beverage stored at 8° C., day 270
Stability in AB White, 8° C. (content by LCMSMS) strictly less than 2 µg/mL = label 1. Otherwise label 0.

Look over these answered cases.
compound	assignedClass
CCCCCc1cc(O)c(C/C=C(\C)CCC=C(C)C)c(O)c1	label 0
C=C(C)[C@@H]1CCC(C)=C[C@H]1c1c(O)cc(CCCCC)cc1O [CBD, cannabidiol, reference compound]	label 0
C=C(C)[C@@H]1CCC(C)=C[C@H]1c1c(O)cc(CCC)cc1O	label 1

query: Lab note: confirm whether the reported Stability in AB White, 8° C. (content by LCMSMS) for this compound is below 2 µg/mL, equality not counting. compound: `CCCCCc1cc(O)c2c(c1)OC(C)(C)c1ccc(C)cc1-2`
result: label 0

query: Record CCCCCc1cc(O)c2c(c1)OC1(C)CCC3C1C2C3(C)C (stereo not shown) : is its Stability in AB White, 8° C. (content by LCMSMS) strictly below 2 µg/mL?
result: label 1

query: Report whether reported Stability in AB White, 8° C. (content by LCMSMS) is lower than 2 µg/mL (strictly) for CCCCCc1cc(O)c2c(c1)OC(C)(C)[C@@H]1CCC(C)=C[C@@H]21 [D9 THC, delta-9-tetrahydrocannabinol, reference compound]
result: label 0

query: Say whether its Stability in AB White, 8° C. (content by LCMSMS) is strictly beneath 2 µg/mL. Entry: CCCc1cc(O)c2c(c1)OC(C)(C)[C@@H]1CCC(C)=C[C@@H]21 [THCV, delta-9-tetrahydrocannabivarin]
result: label 0

query: Could you please tell me whether Stability in AB White, 8° C. (content by LCMSMS) recorded for `C=C(C)[C@@H]1CCC(C)=C[C@H]1c1c(O)cc(CCCCC)c(C(=O)O)c1O` is less than 2 µg/mL?
result: label 1

query: Find out if reported Stability in AB White, 8° C. (content by LCMSMS) for CCCCCc1cc2c(c(O)c1C(=O)O)[C@@H]1C=C(C)CC[C@H]1C(C)(C)O2 [D9 THCA, delta-9-tetrahydrocannabinolic acid] is less than 2 µg/mL
result: label 1

query: Answer whether the compound CCCCCc1cc(O)c2c(c1)OC(C)(CCC=C(C)C)C=C2 (stereo not shown) has Stability in AB White, 8° C. (content by LCMSMS) strictly less than 2 µg/mL
result: label 1
